Just for reference, patent US10189839B2 is where these values come from.

# TEST SYSTEM: full length human TPH1 (Homo sapiens, UniProt P17752)
# Construct: To generate the enzyme, full length human TPH1 is cloned into the plasmid pET20b(+); made in house; host or cells: E. coli
# Sequence (P17752 whole entry): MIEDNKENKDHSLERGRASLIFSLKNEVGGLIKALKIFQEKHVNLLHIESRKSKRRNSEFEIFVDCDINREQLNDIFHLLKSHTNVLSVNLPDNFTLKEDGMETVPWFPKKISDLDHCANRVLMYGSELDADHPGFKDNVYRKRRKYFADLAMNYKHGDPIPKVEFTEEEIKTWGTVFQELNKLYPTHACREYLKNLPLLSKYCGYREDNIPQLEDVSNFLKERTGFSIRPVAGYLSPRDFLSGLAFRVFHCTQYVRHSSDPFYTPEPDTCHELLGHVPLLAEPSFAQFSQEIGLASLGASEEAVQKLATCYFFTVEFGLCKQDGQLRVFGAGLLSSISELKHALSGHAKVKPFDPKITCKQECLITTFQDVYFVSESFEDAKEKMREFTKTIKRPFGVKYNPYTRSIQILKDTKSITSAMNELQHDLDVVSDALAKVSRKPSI
# ASSAY DETAILS: Biochemical in vitro assay using fluorescence readout (TPH1 enzyme activity)
# CONDITIONS USED: Table 1, mean where determined several times
# Description: Inhibitory activities on tryptophan hydroxylase 1 have been measured for each example compound using the following procedure: Biochemical In Vitro Assay Using Fluorescence Readout To generate the enzyme, full length human TPH1 is cloned into the plasmid pET20b(+) (Novagen) and expressed in E. coli. […] The activity of TPH1 is determined by using a fluorescence assay. […] The amount of 5-hydroxy-L-tryptophan produced during the enzymatic reaction is determined by fluorescence readout. […]
Below, each of the molecules is paired with its reported log10(IC50) value.
Values reflect log10 of reported IC50 (µM).

{"MOLECULE": "Cc1ccc(C2c3c(nc4n3CCN(C(=O)OC(C)(C)C)C4)CCN2C(=O)COc2ccc(CN3CCOCC3)cc2Cl)c(F)c1 (centres unmarked)", "READOUT NAME": "log10(IC50)", "QUANTITATIVE READOUT": -0.51}
{"MOLECULE": "CCc1nc(NS(C)(=O)=O)ccc1OCC(=O)N1CCc2nc3n(c2C1c1scnc1C)CCCC3 (centres unmarked)", "READOUT NAME": "log10(IC50)", "QUANTITATIVE READOUT": -1.36}
{"MOLECULE": "COC(=O)c1ccc([C@@H]2c3c(nc4n3CCCC4)CCN2C(=O)COc2ccc(C(=O)NC3CC3)nc2Cl)c(F)c1", "READOUT NAME": "log10(IC50)", "QUANTITATIVE READOUT": -1.25}
{"MOLECULE": "CCc1nc(NS(C)(=O)=O)ccc1OCC(=O)N1CCc2nc3n(c2C1c1nc(-c2ccccc2)no1)CCCC3 (centres unmarked)", "READOUT NAME": "log10(IC50)", "QUANTITATIVE READOUT": -1.10}
{"MOLECULE": "CCc1nc(NS(C)(=O)=O)ccc1OCC(=O)N1CCc2nc3n(c2C1c1ccc(C2CC2)cc1F)CCS3 (centres unmarked)", "READOUT NAME": "log10(IC50)", "QUANTITATIVE READOUT": -2.22}

Ask: Write down log10(IC50) measured for item O=C(NC1CC1)c1ccc(OCC(=O)N2CCc3nc4n(c3C2c2ccc(Cl)cc2F)CCS4)c(Cl)n1 (centres unmarked)
Result: -2.05

Ask: Write down log10(IC50) measured for item COc1nc(NS(C)(=O)=O)ccc1OCC(=O)N1CCc2nc3n(c2C1c1ccc(Cl)cc1F)CCCC3 (centres unmarked)
Result: -0.46

Ask: Write down log10(IC50) measured for item O=C(NC1CC1)c1ccc(OCC(=O)N2CCc3nc4n(c3[C@@H]2c2ccc(C3CC3)cc2F)CCCC4)c(Cl)n1
Result: -2.05

Ask: Write down log10(IC50) measured for item Cc1ccc(C2c3c(nc4n3CCOC4)CCN2C(=O)COc2ccc(C(=O)N(C)C)nc2Cl)c(F)c1 (centres unmarked)
Result: -2.15
